Target: histamine-(H1)-receptor (Cavia porcellus)
Construct: Segments of the ileum 1.5 cm long from Dunkin Hartley guinea pigs; from tissue; host or cells: isolated ileum of Dunkin Hartley guinea pigs
Sequence (P31389 whole entry): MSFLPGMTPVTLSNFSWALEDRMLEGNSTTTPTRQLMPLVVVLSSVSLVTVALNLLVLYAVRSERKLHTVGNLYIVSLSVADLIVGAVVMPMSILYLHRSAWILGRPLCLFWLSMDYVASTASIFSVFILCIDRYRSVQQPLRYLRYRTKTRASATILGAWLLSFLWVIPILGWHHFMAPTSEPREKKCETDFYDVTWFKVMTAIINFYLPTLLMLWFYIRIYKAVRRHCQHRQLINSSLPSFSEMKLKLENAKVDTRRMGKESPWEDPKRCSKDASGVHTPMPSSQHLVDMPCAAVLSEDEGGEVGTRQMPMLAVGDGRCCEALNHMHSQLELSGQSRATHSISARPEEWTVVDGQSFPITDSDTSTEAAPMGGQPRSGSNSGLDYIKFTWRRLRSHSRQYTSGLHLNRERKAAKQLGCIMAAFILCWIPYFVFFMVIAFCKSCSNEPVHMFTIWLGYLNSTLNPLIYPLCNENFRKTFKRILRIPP
Experiment: Histamine-(H1)-receptor antagonism in vitro, histamine-induced contractions of isolated ileum
Format: cell-based, guinea pig (Dunkin Hartley)
Details: 10 min; test substance 10^-6 mole/l, histamine 5 × 10^-6 mole/l, after 10 minutes (after washing); read-out: % inhibition of histamine-induced ileum contractions after 10 minutes
The label depends only on inhibition at 1 µM: 1 (yes) if it is at least 40%, 0 (no) if it is smaller.

# count of solved cases: 3
[
  {
    "MOLECULE": "Cc1ccc(N2CCN(CCCCC3Sc4ccccc4NC3=O)CC2)nc1 (stereo not shown) [Example 13]",
    "ANSWER LABEL": "0 (no)"
  },
  {
    "MOLECULE": "Cc1ccnc(N2CCN(CCCCC3Sc4cc(O)ccc4NC3=O)CC2)c1 (stereo not shown) [Example 25]",
    "ANSWER LABEL": "0 (no)"
  },
  {
    "MOLECULE": "COc1ccc2c(c1)SC(CCCCN1CCN(c3cc(C)ccn3)CC1)C(=O)N2 (stereo not shown) [Example 19]",
    "ANSWER LABEL": "1 (yes)"
  }
]

input: Assess whether reported inhibition at 1 µM for Cc1ccnc(N2CCN(CCCCC3Sc4cc(Cl)ccc4NC3=O)CC2)c1 (stereo not shown) [Example 27] sits at 40% or higher.
output: 1 (yes)

input: Is it the case that Cc1ccnc(N2CCN(CCCC3Sc4ccccc4NC3=S)CC2)c1 (stereo not shown) [Example 11] has inhibition at 1 µM reaching or exceeding 40%?
output: 0 (no)

input: Is the recorded value of inhibition at 1 µM equal to or greater than 40% for this molecule? Cc1ccnc(N2CCN(CCCC3Sc4ccccc4NC3=O)CC2)c1 (stereo not shown) [Example 8]
output: 0 (no)

input: Assess whether reported inhibition at 1 µM for CCCCN1C(=O)C(CCCCN2CCN(c3cc(C)ccn3)CC2)Sc2ccccc21 (stereo not shown) [Example 28] sits at 40% or higher.
output: 1 (yes)
